# Lookup of reported Ratio/FWT keyed by entry
Target Or System: T1, FcRn-p3 fusion protein (human, UniProt P55899 24-297; P61769 21-119)
T1 construct: baculovirus expressed; coated on ELISA wells; not shown: amino terminal part of bacteriophage p3 protein and CVDE protein
T1 sequence (P55899 24-297, chain 1 of 2): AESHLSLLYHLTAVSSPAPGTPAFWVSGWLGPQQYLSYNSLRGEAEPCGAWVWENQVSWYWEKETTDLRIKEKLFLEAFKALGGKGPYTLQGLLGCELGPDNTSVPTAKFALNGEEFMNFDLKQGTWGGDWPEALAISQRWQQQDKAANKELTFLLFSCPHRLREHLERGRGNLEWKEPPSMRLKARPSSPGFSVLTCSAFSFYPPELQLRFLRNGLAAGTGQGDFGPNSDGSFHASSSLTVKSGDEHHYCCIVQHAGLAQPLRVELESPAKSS
T1 sequence (P61769 21-119, chain 2 of 2): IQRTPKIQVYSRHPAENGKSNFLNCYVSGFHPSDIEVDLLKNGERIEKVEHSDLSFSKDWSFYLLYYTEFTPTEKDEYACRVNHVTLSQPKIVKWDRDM
Assay Method Text: phage ELISA pH6 (est.)
# output: bare number, implied unit fold

Binder	Units	Ratio/FWT
T8A_81 (other, EU numbering) CPPCPAPELLGGPSVFLFPPKPKDTLMISRTPEVTCVVADVSHEDPEVKFNWYVDGVEVHNAKTKPREEQYNSTYRVVSVLTVLHQDWLDGKEYKCKVSNKALPAPIEKTISKAKGQPREPQVYTLPPSRDELTKNQVSLTCLVKGFYPSDIAVEWVSNGQPENNYKTTPPVLDSDGSFFLYSKLTVDKSRWQQGNVFSCSVMHEALHYHYTQKSLSLSPGK	fold	8.2

Turning to the following binder.
State the recorded Ratio/FWT for this entry: C8A_08 (other, EU numbering) CPPCPAPELLGGPSVFLFPPKPKDTLMISRTPEVTCVVADVSHEDPEVKFNWYVDGVEVHNAKTKPREEQYNSTYRVVSVLTVLHQDWLDGKEYKCKVSNKALPVPIEKTISKAKGQPREPQVYTLPPSRDELTKNQVSLTCLVKGFYPSDIAVEWESNGQPENNYKTTPPVLDSDGSFFLYSKLTVDKSRWQQGNVFSCSVMHEALHYHYTQKSLSLSPGK
6.4
